Target: T1, DDX21Core-DD (human, UniProt Q9NR30 186-620)
T1 sequence: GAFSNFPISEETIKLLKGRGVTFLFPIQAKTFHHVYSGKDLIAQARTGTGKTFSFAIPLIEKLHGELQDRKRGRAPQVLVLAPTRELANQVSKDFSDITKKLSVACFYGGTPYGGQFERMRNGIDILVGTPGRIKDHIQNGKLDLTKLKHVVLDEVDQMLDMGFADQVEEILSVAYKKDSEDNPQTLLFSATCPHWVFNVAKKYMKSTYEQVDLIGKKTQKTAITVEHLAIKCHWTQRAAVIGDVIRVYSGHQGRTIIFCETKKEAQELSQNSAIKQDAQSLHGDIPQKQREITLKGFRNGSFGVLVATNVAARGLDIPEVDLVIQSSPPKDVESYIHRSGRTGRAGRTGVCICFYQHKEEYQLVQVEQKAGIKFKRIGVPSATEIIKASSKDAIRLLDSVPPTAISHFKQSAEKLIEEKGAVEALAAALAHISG
Test: fluorescence polarization; FP: 50 mM Tris pH 7.5, 50 mM KCl, 5 mM MgCl2, no ATP; Hill-slope fit; temperature not given in the material
Settings: protein: recombinant; tags: C-terminal His6, uncleavable; chain copies: 2; label: 5'-FAM; single strand

{"Binder": "GUUUCGGAUCGACGC (ssRNA) [15-mer ssRNA]", "Units label": "nM", "Kd": 330}
